Tested on: HCT-116 colon
Experiment: NCI tumour cell line growth inhibition, 48 h; in the data active = GI50 below about 0.43 µM; inactive = the rest
Response enum: 1.0 for active, 0.0 for inactive

Field: example entries. Status: answers known.
{"columns": ["COMPOUND", "CATEGORY"],
 "data": [
  ["CC(=O)O[C@H]1CC[C@H]2[C@@H]3CCc4cc(O)c(I)cc4[C@H]3CC[C@]12C", 0.0],
  ["COc1ccc(C(=S)c2cc(OC)c(OC)c(OC)c2)cc1OC(=O)CCl", 1.0],
  ["CCCCCCCCCCCCCOC(=O)c1c(C)[nH]c(/C=C2\\N=C(c3ccc[nH]3)C=C2OC)c1C", 1.0],
  ["CC(=O)[CH-]C(=O)c1ccccc1.CC(=O)[CH-]C(=O)c1ccccc1.O=C([O-])C[O-].O=C([O-])C[O-].[Ti+4]", 0.0],
  ["O=C1C=C(Nc2ccccc2)c2ncccc2C1=O", 1.0],
  ["C/C(=C\\c1ccn(-c2ccc(N)c(C(F)(F)F)c2)n1)[C@@H]1C[C@@H]2O[C@]2(C)CCC[C@H](C)[C@H](O)[C@@H](C)C(=O)C(C)(C)[C@@H](O)CC(=O)O1", 1.0],
  ["COc1ccc(-c2cc(-c3ccc(Nc4nc(Nc5ccc(Cl)cc5)nc(Nc5ccc(Cl)cc5)n4)cc3)no2)cc1", 0.0]
]}

Continue with the compound presented below.
IN: What classification did CCN1C(=O)N(CC)C2C1NN=c1s/c(=C3\C(=O)N(CCC(C)C)c4ccccc43)c(=O)n12 (stereo not drawn) end up with in this test?
OUT: 0.0

====

Test system: M14 melanoma
Test: NCI tumour cell line growth inhibition, 48 h
Listed below: TGI values for each entry.
Express the result in µM but write the number alone.

{"columns": ["COMPOUND", "MEASURED TARGET", "RECORDED RESULT"],
 "data": [
  ["C#C[C@@]1(O)[C@@H](CO)O[C@@H](n2cc(Cl)c3c(N)ncnc32)[C@@H]1O", "M14 melanoma", 0.585],
  ["CCCCCCCC1c2cc3[nH]c(cc4nc(cc5[nH]c(cc(n2)[C@@]1(C)CC(=O)N(C)C)c(C)c5CCC(=O)O)C(CCC(=O)O)=C4C)cc3C (some centres undefined)", "M14 melanoma", 29.8],
  ["O=S(=O)(NCCNc1cc(-c2cn(-c3ccccc3)nc2-c2cccc(O)c2)ccn1)c1ccc(C(F)(F)F)cc1", "M14 melanoma", 7.17],
  ["C=CCNC1=C2C[C@@H](C)C[C@@H](OC)[C@H](OC(=O)CN(C)C)[C@H](C)/C=C(\\C)[C@@H](OC(N)=O)[C@H](OC)/C=C\\C=C(/C)C(=O)NC(=CC1=O)C2=O", "M14 melanoma", 18.9],
  ["O=C1C=C(Nc2ccccc2)c2ncccc2C1=O", "M14 melanoma", 1.17],
  ["C[C@]12CCC3c4ccc(OC(=O)c5ccccc5)cc4CC[C@H]3C1CC[C@@H]2OC(=O)C12OC1CCC2=O (some centres undefined)", "M14 melanoma", 12],
  ["COC(=O)[C@@H]1O[C@]12C(CO[Si](C)(C)C(C)(C)C)OC(n1ccc(=O)[nH]c1=O)C2O[Si](C)(C)C(C)(C)C (some centres undefined)", "M14 melanoma", 30.7],
  ["Nc1ncc(-c2cnn(C3CCNCC3)c2)cc1-c1nc2ccccc2o1", "M14 melanoma", 2.54]
]}

IN: I am curious: what TGI value has been reported for `N=c1nc(N)c2cc3c(N)nc(=N)c3cc12` ?
OUT: 27.9

====

Collected log10 TGI values appear next to each entry.
Test system: SK-MEL-5 melanoma
Assay: NCI tumour cell line growth inhibition, 48 h
Answers are given as log10 of TGI in µM.

{"columns": ["COMPOUND", "log10 TGI"],
 "data": [
  ["O=C1C2CC3C(CC2C(=O)[N]1[Sn]([c]1ccccc1)([c]1ccccc1)[c]1ccccc1)C1(Cl)C(Cl)=C(Cl)C3(Cl)C1(Cl)Cl (configuration not stated)", -0.52],
  ["O=c1c(O)c(-c2ccc(O)c(O)c2)oc2cc(O)ccc12", 1.44],
  ["COC(=O)[C@H](CCSC)NC(=O)c1ccc(CNC(=O)/C=C/c2cccc(Oc3ccccc3)c2)cc1", 1.54]
]}

IN: Give the measured log10 TGI of `CCN(Cc1ccc(F)cc1)c1ccc(CO)c(Cl)c1` .
OUT: 1.18

IN: Then what about the compound `Nc1ccccc1NC(=O)c1ccc(CSc2nc(N3CCOCC3)c3cccn3n2)cc1` ?
OUT: 0.21

IN: What do you have for `CCc1ccc(C2=C/C(=C/c3ccc(Cl)cc3)C(=O)N2CCc2ccc(S(N)(=O)=O)cc2)cc1` ?
OUT: 0.49

IN: Another compound to look at: COc1cc(CC2CCc3nc(N)nc(N)c3C2)cc(OC)c1OC (configuration not stated)
OUT: 1.22

IN: Try `COc1cc2c(c(OC)c1OC)-c1ccc([O-])c(=O)cc1[C@@H](NC(C)=O)CC2.COc1cc2c(c(OC)c1OC)-c1ccc([O-])c(=O)cc1[C@@H](NC(C)=O)CC2.[Cu+2]` next.
OUT: 1.08

IN: Follow-up item: `CN(C)CCOc1cc2c(c3ccccc13)-c1ccccc1C2=O`
OUT: 0.47

IN: Same read-out for O=C(CCl)N1CCCCC1C1(c2cc3ccccc3[nH]2)OCCO1 (configuration not stated) ?
OUT: 1.35

IN: Same thing, different compound: `C/C(=C\c1ccn(-c2ccc(N)c(C(F)(F)F)c2)n1)[C@@H]1C[C@@H]2O[C@]2(C)CCC[C@H](C)[C@H](O)[C@@H](C)C(=O)C(C)(C)[C@@H](O)CC(=O)O1`
OUT: 0.58

IN: Another compound to look at: `Nn1c(CCCl)nc2c(Br)cc(Br)cc2c1=O`
OUT: 1.58

IN: And for CC(C)[Si](OC12CCC(CC1O)CC2C(=O)O)(C(C)C)C(C)C (configuration not stated) ?
OUT: 1.71

IN: Try this compound too: `COc1ccc(-c2cc(-c3ccc(Nc4nc(Nc5ccc(Cl)cc5)nc(Nc5ccc(Cl)cc5)n4)cc3)no2)cc1`
OUT: 1.31

IN: What do we get for `C/C(=N\O)c1sc(-n2nc(-c3ccccc3)cc2-c2ccccc2)nc1C` ?
OUT: 1.24

IN: Can you handle `O=c1ncc(-c2ccc(C(F)(F)F)cc2)c(NC2CCCCCC2)[nH]1` next?
OUT: 1.49

IN: Thanks! And `CC(C)(Cl)CCC1=C(Cl)C(=O)c2ccccc2C1=O` ?
OUT: 0.55

IN: Try the compound CC(C#N)c1cn(S(=O)(=O)c2ccccc2)c2ccccc12 (configuration not stated)
OUT: 1.57

IN: Also, `O=c1oc2ccc(Cl)cc2c(=O)n1-c1ccc(Cl)cc1F` please.
OUT: -0.31

====

System: MALME-3M melanoma
Assay: NCI tumour cell line growth inhibition, 48 h
MEASURED ATTRIBUTE: TGI

Here is how some compounds turned out for TGI.
{"columns": ["COMPOUND", "TGI"],
 "data": [
  ["c1cncc(C2c3[nH]c4ccccc4c3CCN2CCCN2CCCCC2)c1 (centres undefined)", "92.5 µM"],
  ["Cc1c(O)c(OC2OC(CO)C(O)C(O)C2O)cc2c1CC[C@@H]1C2(C)C(=O)C[C@]2(C)[C@@H]([C@@](C)(O)C(O)/C=C/C(C)(C)O)[C@H](O)C[C@@]12C (some centres undefined)", "> 100 µM"],
  ["CC[O-].CC[O-].[O-]c1ccccc1C=Nc1ccccc1.[O-]c1ccccc1C=Nc1ccccc1.[Ti+4]", "> 100 µM"]
]}

IN: Look at this compound and give its reported TGI. Nc1nc(N)c2nc(CNc3ccc(C(=O)CC(CCC(=O)O)C(=O)O)cc3)cnc2n1 (centres undefined)
OUT: > 100 µM

====

Tested on: SF-539 CNS
Assay: NCI tumour cell line growth inhibition, 48 h; in the data active means GI50 below about 0.43 µM; inactive means the rest
A correct response names exactly one class from active, inactive

Field: example entries. Status: answers known.
{"columns": ["COMPOUND", "CATEGORY"],
 "data": [
  ["O=C1C(=O)c2cc([N+](=O)[O-])ccc2-c2ccccc21", "inactive"],
  ["COc1cc2[nH]c(C(=O)c3cc(OC)c(OC)c(OC)c3)c(N)c2cc1C#CCO", "active"],
  ["COc1ccc(-c2coc3ncnc(N)c23)cc1", "inactive"],
  ["O=c1ncc(-c2ccc(C(F)(F)F)cc2)c(NC2CCCCCC2)[nH]1", "inactive"],
  ["COc1cccc(-c2nn(-c3ccccc3)cc2-c2ccnc(NCCNS(=O)(=O)c3ccc(C(F)(F)F)cc3)c2)c1", "inactive"],
  ["CC(=O)[CH-]C(=O)c1ccccc1.CC(=O)[CH-]C(=O)c1ccccc1.O=C([O-])C[O-].O=C([O-])C[O-].[Ti+4]", "inactive"],
  ["O=C1c2ccccc2C(=O)N1/N=C\\c1ccc(Br)cc1", "inactive"],
  ["CCC[CH2][Sn]1([CH2]CCC)[O]C(c2ccccn2)S(=O)(=O)[O]1 (stereo not drawn)", "inactive"],
  ["COc1ccc(C(=S)c2cc(OC)c(OC)c(OC)c2)cc1OC(=O)CCl", "active"],
  ["C[C@H]1CCC/C=C/[C@@H]2C[C@H](O)C[C@H]2[C@H](O)[C@H](S(=O)c2ccc(O)cc2)CC(=O)O1 (stereo partly drawn)", "active"]
]}

IN: What did the test return for `CC[O-].CC[O-].[O-]c1ccccc1C=Nc1ccccc1.[O-]c1ccccc1C=Nc1ccccc1.[Ti+4]` ?
OUT: inactive

IN: // query: `Cc1cc(NC(=O)c2ccc(NS(=O)(=O)CCO)cc2N2CCC3(CC2)CC3)nc(N2CCC(F)(F)CC2)n1`
OUT: active

IN: Now the same for `C/C(=C\c1ccn(-c2ccc(N)c(C(F)(F)F)c2)n1)[C@@H]1C[C@@H]2O[C@]2(C)CCC[C@H](C)[C@H](O)[C@@H](C)C(=O)C(C)(C)[C@@H](O)CC(=O)O1`
OUT: active

// data source = PubChem BioAssay (NCI)
